Tested on: Aspergillus fumigatus ATCC 90906
Assay: Antifungal susceptibility testing, Aspergillus fumigatus
Type: cell-based
Details: Table 1; Aspergillus fumigatus
value kind: A fu MIC (µg/mL)
All answers are understood in µg/mL, so give the number only.

Tell me A fu MIC of `Brc1cccc(Sc2cc3ccccc3[n+](CCCCCc3ccccc3)c2)c1.[I-]` when tested on Aspergillus fumigatus ATCC 90906. 10

Tell me A fu MIC of `O=C(c1ccc(Cl)cc1)c1cc2ccccc2[n+](CCCCCc2ccccc2)c1.[I-]` when tested on Aspergillus fumigatus ATCC 90906. 20

Tell me A fu MIC of `Brc1ccccc1Sc1cc2ccccc2[n+](CCCCCc2ccccc2)c1.[I-]` when tested on Aspergillus fumigatus ATCC 90906. 5.0

Tell me A fu MIC of `COc1cccc(Sc2cc3ccccc3[n+](CCCCCc3ccccc3)c2)c1.[I-]` when tested on Aspergillus fumigatus ATCC 90906. 1.3

----------
Record form. Attribute: Ca MIC. Fill in for each entry.
Test system: Candida albicans ATTC 90028
Test: Antifungal susceptibility testing, Candida albicans
Format: cell-based
Conditions: Table 2
All answers are understood in µg/mL, so give the number only.

Identify the reported Ca MIC for the following entry. COc1cccc(N(CCCCCC2CCCCC2)c2cc3ccccc3[n+](C)c2)c1.[I-] [JRE-3-69-1] 2.5

Identify the reported Ca MIC for the following entry. C[C@@H]1[C@H](O)[C@@H](C)/C=C/C=C/C=C/C=C/C=C/C=C/C=C/[C@H](O[C@@H]2O[C@H](C)[C@@H](O)[C@H](N)[C@@H]2O)C[C@@H]2O[C@](O)(C[C@@H](O)C[C@@H](O)[C@H](O)CC[C@@H](O)C[C@@H](O)CC(=O)O[C@H]1C)C[C@H](O)[C@H]2C(=O)O [Amph B, Amphotericin B, reference compound] 0.63

Identify the reported Ca MIC for the following entry. C[n+]1cc(N(CCCCCC2CCCCC2)c2cccc(C(F)(F)F)c2)cc2ccccc21.[I-] [JRE-3-61-1] 2.5

Identify the reported Ca MIC for the following entry. Clc1cccc(Nc2cc3ccccc3[n+](CCCCCC3CCCCC3)c2)c1.[I-] [JRE-3-88-1] 6.3

----------
Record form. Attribute: A fu MFC. Fill in for each entry.
System: Aspergillus fumigatus ATCC 90906
Test: Antifungal susceptibility testing, Aspergillus fumigatus
Type: cell-based
All answers are understood in µg/mL, so give the number only.

Identify the reported A fu MFC for the following entry. `C[n+]1cc2c(c3cc(C(F)(F)F)ccc3n2CCCCCC2CCCCC2)c2ccccc21.[I-]` 10

Identify the reported A fu MFC for the following entry. `C[n+]1cc(N(CCCCCC2CCCCC2)c2cccc(Cl)c2)cc2ccccc21.[I-]` 10

Identify the reported A fu MFC for the following entry. `C[n+]1cc2c(c3ccc(Cl)cc3n2CCCCCC2CCCCC2)c2ccccc21.[I-]` 5.0

Identify the reported A fu MFC for the following entry. `C[n+]1cccc(N(CCCCCC2CCCCC2)c2ccc3ccccc3c2)c1` 6.3

Identify the reported A fu MFC for the following entry. `C[n+]1cc(N(CCCCCC2CCCCC2)c2ccsc2)cc2ccccc21` 5.0

Identify the reported A fu MFC for the following entry. `C[n+]1cc2c(c3ccccc3n2CCCCCC2CCCCC2)c2ccccc21.[I-]` 10

Identify the reported A fu MFC for the following entry. C[C@@H]1[C@H](O)[C@@H](C)/C=C/C=C/C=C/C=C/C=C/C=C/C=C/[C@H](O[C@@H]2O[C@H](C)[C@@H](O)[C@H](N)[C@@H]2O)C[C@@H]2O[C@](O)(C[C@@H](O)C[C@@H](O)[C@H](O)CC[C@@H](O)C[C@@H](O)CC(=O)O[C@H]1C)C[C@H](O)[C@H]2C(=O)O [Amph B, Amphotericin B, reference compound] 2.5

----------
Record form. Attribute: Ca MIC. Fill in for each entry.
Test system: Candida albicans ATTC 90028
Assay: Antifungal susceptibility testing, Candida albicans
Type: cell-based
Conditions: Table 2
All answers are understood in µg/mL, so give the number only.

Tell me Ca MIC of `C[n+]1cc(N(CCCCCC2CCCCC2)c2ccc(C(F)(F)F)cc2)cc2ccccc21.[I-]` when tested on Candida albicans ATTC 90028. 1.6

Tell me Ca MIC of `Clc1ccc(Nc2cc3ccccc3[n+](CCCCCC3CCCCC3)c2)cc1.[I-]` when tested on Candida albicans ATTC 90028. 25

----------
Tested on: Aspergillus fumigatus ATCC 90906
Experiment: Antifungal susceptibility testing, Aspergillus fumigatus
Format: cell-based
Returns one of Satisfied or Not satisfied; Satisfied when A fu MIC is >= 2 µg/mL.

Is A fu MIC at least 2 µg/mL? Consider `C[n+]1cc2c(c3cc(C(F)(F)F)ccc3n2CCCCCC2CCCCC2)c2ccccc21.[I-]` Satisfied

Is A fu MIC at least 2 µg/mL? Consider `C[n+]1cc2c(c3cc(Cl)ccc3n2CCCCCC2CCCCC2)c2ccccc21.[I-]` Satisfied

Is A fu MIC at least 2 µg/mL? Consider `C[n+]1cc2c(c3ccc(Cl)cc3n2CCCCCC2CCCCC2)c2ccccc21.[I-]` Satisfied

Is A fu MIC at least 2 µg/mL? Consider `C[n+]1cc2c(c3ccc(C(F)(F)F)cc3n2CCCCCC2CCCCC2)c2ccccc21.[I-]` Satisfied

Is A fu MIC at least 2 µg/mL? Consider `COc1ccc(N(CCCCCC2CCCCC2)c2cc3ccccc3[n+](C)c2)cc1.[I-]` Not satisfied

Is A fu MIC at least 2 µg/mL? Consider `C[n+]1cccc(N(CCCCCC2CCCCC2)c2ccc3ccccc3c2)c1` Not satisfied

Is A fu MIC at least 2 µg/mL? Consider `C[n+]1cccc(N(CCCCCC2CCCCC2)c2ccccc2)c1` Not satisfied

Is A fu MIC at least 2 µg/mL? Consider `Clc1cccc(Nc2cc3ccccc3[n+](CCCCCC3CCCCC3)c2)c1.[I-]` Satisfied

Is A fu MIC at least 2 µg/mL? Consider C[C@@H]1[C@H](O)[C@@H](C)/C=C/C=C/C=C/C=C/C=C/C=C/C=C/[C@H](O[C@@H]2O[C@H](C)[C@@H](O)[C@H](N)[C@@H]2O)C[C@@H]2O[C@](O)(C[C@@H](O)C[C@@H](O)[C@H](O)CC[C@@H](O)C[C@@H](O)CC(=O)O[C@H]1C)C[C@H](O)[C@H]2C(=O)O [Amph B, Amphotericin B, reference compound] Satisfied

Is A fu MIC at least 2 µg/mL? Consider `Clc1ccc(Nc2cc3ccccc3[n+](CCCCCc3ccccc3)c2)cc1` Satisfied

Is A fu MIC at least 2 µg/mL? Consider `COc1cccc(N(CCCCCC2CCCCC2)c2cc3ccccc3[n+](C)c2)c1.[I-]` Not satisfied

Is A fu MIC at least 2 µg/mL? Consider `c1ccc(Nc2cc3ccccc3[n+](CCCCCC3CCCCC3)c2)cc1` Not satisfied

Is A fu MIC at least 2 µg/mL? Consider `FC(F)(F)c1ccccc1Sc1cc2ccccc2[n+](CCCCC[n+]2c3ccccc3cc3[nH]c4ccccc4c32)c1` Satisfied

Is A fu MIC at least 2 µg/mL? Consider `C[n+]1cc(N(CCCCCC2CCCCC2)c2ccc(Cl)cc2)cc2ccccc21.[I-]` Not satisfied

Is A fu MIC at least 2 µg/mL? Consider `FC(F)(F)c1ccccc1Sc1cc2ccccc2[n+](CCCCC[n+]2cc(Sc3ccccc3C(F)(F)F)cc3ccccc32)c1` Satisfied

Is A fu MIC at least 2 µg/mL? Consider `C[n+]1cc(N(CCCCCC2CCCCC2)c2ccc(C(F)(F)F)cc2)cc2ccccc21.[I-]` Satisfied

Is A fu MIC at least 2 µg/mL? Consider `C[n+]1cc(N(CCCCCC2CCCCC2)c2ccc(OC(F)(F)F)cc2)cc2ccccc21.[I-]` Satisfied

Is A fu MIC at least 2 µg/mL? Consider `C[n+]1cc(N(CCCCCC2CCCCC2)c2ccc3ccccc3c2)cc2ccccc21` Not satisfied

Is A fu MIC at least 2 µg/mL? Consider `C[n+]1cc(N(CCCCCC2CCCCC2)c2cccc(C(F)(F)F)c2)cc2ccccc21.[I-]` Satisfied

Is A fu MIC at least 2 µg/mL? Consider `C[n+]1cc2c(c3ccccc3n2CCCCCC2CCCCC2)c2ccccc21.[I-]` Satisfied

Is A fu MIC at least 2 µg/mL? Consider `C[n+]1cc(N(CCCCCC2CCCCC2)c2ccsc2)cc2ccccc21` Not satisfied

Is A fu MIC at least 2 µg/mL? Consider `C[n+]1cc(N(CCCCCC2CCCCC2)c2cccc(Cl)c2)cc2ccccc21.[I-]` Satisfied

----------
Test system: Aspergillus fumigatus ATCC 90906
Assay: Antifungal susceptibility testing, Aspergillus fumigatus
Type: cell-based
Conditions: Table 1; Aspergillus fumigatus
value kind: A fu MIC (µg/mL)
All answers are understood in µg/mL, so give the number only.

Tell me A fu MIC of `Fc1cccc(Sc2cc3ccccc3[n+](CCCCCc3ccccc3)c2)c1.[I-]` when tested on Aspergillus fumigatus ATCC 90906. 0.16

Tell me A fu MIC of `COc1ccc(Sc2cc3ccccc3[n+](CCCCCc3ccccc3)c2)cc1.[I-]` when tested on Aspergillus fumigatus ATCC 90906. 10

Tell me A fu MIC of `FC(F)(F)c1ccc(Sc2cc3ccccc3[n+](CCCCCc3ccccc3)c2)cc1.[I-]` when tested on Aspergillus fumigatus ATCC 90906. 5.0

Tell me A fu MIC of `COc1ccccc1Sc1cc2ccccc2[n+](CCCCCc2ccccc2)c1.[I-]` when tested on Aspergillus fumigatus ATCC 90906. 1.3

Tell me A fu MIC of `FC(F)(F)c1ccccc1Sc1cc2ccccc2[n+](CCCCCc2ccccc2)c1.[I-]` when tested on Aspergillus fumigatus ATCC 90906. 0.08

Tell me A fu MIC of `FC(F)(F)c1cccc(Sc2cc3ccccc3[n+](CCCCCc3ccccc3)c2)c1.[I-]` when tested on Aspergillus fumigatus ATCC 90906. 5.0

Tell me A fu MIC of `Fc1ccccc1Sc1cc2ccccc2[n+](CCCCCc2ccccc2)c1.[I-]` when tested on Aspergillus fumigatus ATCC 90906. 0.31
